- Assayed System: T1, HCoV-229E S ectodomain (HCoV-229E)
- T1 construct: range 17-1142
- Assay Details: ELISA on coated S
As shown below, each of these binders has a reported EC50 value.
Write the number in µg/mL without appending the unit.

Looking up fp.001 (antibody, V domains shown) VH: VQLVESGGGVVQPGRPLRLSCSGSGFIFSNYAMHWVRQAPGKGLEWVAIISFDARNKRYADSVEGRFTISRDNSKNILYLQMNSLRLEDSAVYFCARDLFLSDYDNGVYDPTRGGFDYWGQGTLVTVSS VL: EIVMTQSPATLSLSPGERATLSCRASQSVNNRLAWYQQKLGQPPRLLISGASTRATGIPARFTGSGSGTEFTLTISSLQSEDFAVYYCQQYHDWPLLSFGGGTKVEIK , I found its EC50 recorded as 0.028

Quick note, EC50 for fp.004 (antibody, V domains shown) VH: VQLVESGGGVVQPGTSLRLSCVASGFTFSNYAMHWVRQAPGKGLEWVAIISFDTRNTASAASVKGRFNISRDNSKNSLYLQMNSLRPEDTGVYYCARDLFLSDYDSRGYDPITGGFDCWGQGTLVTVSS VL: EIVMTQSPAALSVSPGEGATLSCRASQSVGSRLAWYQQKLGRPPRLLIYGASTRATGIPARFSGSGSGTEFTLTISSLQSEDFAVYYCQQYNDWPLLTFGGGTKVKIK landed at 0.037

For record fp.008 (antibody, V domains shown) VH: VQLVESGGGVVQPGRSLRLSCRASGFRFNNYAMHWVRQAPGKGLEWVAIISYEARNEKYAASVKGRFSISRDNAKNTLYLQMNSLRPEDTAIYYCARDVFLSDYDQSGYDVTRGGFDYWGQGTLVTVSS VL: EIVMTQSPATLSVSPGESATLSCRASQSVSSSLAWYQHKFGQAPRLLIYGASTRATGIPDRFSGSGSGMEFTLTISSLQSEDVAIYYCQQYGDWPLVTFGGGTKVEIK the listed EC50 is 0.0482
